System: N140
Assay: qHTS profiling for inhibitors of Plasmodium falciparum proliferation (AID 504749); note: nearly all actives have a fitted effect of over 60% in size
Settings: P. falciparum in erythrocytes, SYBR Green DNA, 72 h; series mostly up to 28.7 µM
Inconclusive results are not listed. Calls of active or inactive are those of the source. Calls come from the whole dose curve; as a rule, active = well fitted inhibition curve with a large enough effect; inconclusive = small, poorly fitted or top-dose-only effect; inactive = flat fitted curve, though single readings scatter.
One label from this list, please: active, inactive

[[record]]
compound = "COc1ccc(C(=O)/C(Br)=C/C(=O)O)cc1"
category = "inactive"

[[record]]
compound = "OCCN1CC(O)C(O)C(O)C1CO (configuration not stated)"
category = "inactive"

[[record]]
compound = "Cc1c(C)c2c(c(C)c1O)CCC(C)(CCCC(C)CCCC(C)CCCC(C)C)O2 (configuration not stated)"
category = "inactive"


Which outcome did this test record for the compound "CN(C)CC/C=C1\c2ccccc2COc2ccc(CC(=O)O)cc21" ?
inactive

Which outcome did this test record for the compound COC(=O)C1C2CC3c4[nH]c5cc(OC)ccc5c4CCN3CC2CC(OC)C1OC (configuration not stated) ?
inactive

Which outcome did this test record for the compound C[C@]12CC[C@@H]3c4ccc(O)cc4CC[C@H]3[C@@H]1CCC2OC(=O)CCC1CCCC1 (some centres not stated) ?
inactive

Which outcome did this test record for the compound OCC1O[C@@H](O[C@@H]2C(CO)OC(O)C(O)C2O)C(O)C(O)C1O (some centres not stated) ?
inactive

----------
Test: Stat Signaling Pathway (AID 446);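 note: ME-180 cervical cancer cells given 40 pM IL-6 alongside compound; SIE-controlled beta-lactamase reporter measured as 460/530 nm FRET emission ratio; % is set by controls: 0 for no effect and ±100 for the full control effect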
Conditions: ME-180 (cervical carcinoma) SIE beta-lactamase reporter, IL-6 stimulated, 5 h; at 17.2 µM (top of the series) unless noted
Results filed as inconclusive are left out.
Recorded endpoint: activity, negative = inhibition (%)
The reply should be a number in %, with the unit left off.

[[record]]
compound = "CCOc1nc(Oc2cccc(C(=O)O)c2)nc(Oc2cccc(C(=O)O)c2)n1"
unit_of_measurement = "%"
reported_result = 8.24

[[record]]
compound = "O=C(O)CCN(CCC(=O)O)c1nnc(SCc2ccccc2)s1"
unit_of_measurement = "%"
reported_result = 11.2

[[record]]
compound = "COc1cccc(C2C(C(=O)c3sc(C)nc3C)=C(O)C(=O)N2CCN2CCOCC2)c1OC (stereo unspecified)"
unit_of_measurement = "%"
reported_result = 7.97


Please report the recorded activity, negative = inhibition for CN1C(=O)NC(c2ccccc2)C2=C1CN(Cc1ccccc1)C2=O (stereo unspecified) .
-9.01

Please report the recorded activity, negative = inhibition for "CCC(NC(=O)Nn1cnnc1)(C(F)(F)F)C(F)(F)F" .
5.97

Please report the recorded activity, negative = inhibition for C=CCNc1nnc(SC2CC(=O)N(c3ccc(OC)cc3)C2=O)s1 (stereo unspecified) .
-1.82

----------
Test system: CP247
Assay: qHTS profiling for inhibitors of Plasmodium falciparum proliferation (AID 504749); note: nearly all actives have a fitted effect of over 60% in size
Details: P. falciparum in erythrocytes, SYBR Green DNA, 72 h; series mostly up to 28.7 µM
Results filed as inconclusive are left out. Activity calls are given as the source filed them. The call rests on the fitted dose curve; in most records, active means well fitted inhibition curve with a large enough effect; inconclusive means small, poorly fitted or top-dose-only effect; inactive means flat fitted curve, though single readings scatter.
One label from this list, please: active, inactive

Which outcome did this test record for the compound CC(=O)NC1[C@H](O)C[C@@](O)(C(=O)O)O[C@H]1[C@H](O)[C@H](O)CO (stereo partly drawn) ?
inactive

Which outcome did this test record for the compound "C/C=C1/NN(CCCN2CCN(c3cccc(Cl)c3)CC2)C(=O)N1CCOc1ccccc1" ?
inactive

Which outcome did this test record for the compound "C=C1CC[C@H](O)C/C1=C/C=C1\CCC[C@]2(C)[C@@H]([C@H](C)CCCC(C)(C)O)CC[C@@H]12" ?
active

Which outcome did this test record for the compound CO[C@H]1OC2O[C@@]3(C)CC[C@H]4[C@H](C)CC[C@@H]([C@H]1C)[C@@]24OO3 (stereo partly drawn) ?
active

Which outcome did this test record for the compound O=c1[nH]c(=O)n(C2C[C@H](O)[C@@H](CO)O2)cc1C(F)(F)F (stereo partly drawn) ?
inactive

Which outcome did this test record for the compound Cc1onc(-c2c(F)cccc2Cl)c1C(=O)NC1C(=O)N2C1SC(C)(C)C2C(=O)O (stereo not drawn) ?
inactive

----------
Tested on: CP191
Experiment: qHTS profiling for inhibitors of Plasmodium falciparum proliferation (AID 504749); note: nearly all actives have a fitted effect of over 60% in size
Details: P. falciparum in erythrocytes, SYBR Green DNA, 72 h; series mostly up to 28.7 µM
Results filed as inconclusive are left out. Calls of active or inactive are those of the source. The call rests on the fitted dose curve; in most records, active means well fitted inhibition curve with a large enough effect; inconclusive means small, poorly fitted or top-dose-only effect; inactive means flat fitted curve, though single readings scatter.
One label from this list, please: yes for active, no for inactive

Which outcome did this test record for the molecule CC(=O)C1(O)Cc2c(O)c3c(c(O)c2C(OC2CC(N)C(O)C(C)O2)C1)C(=O)c1c(O)cccc1C3=O (stereo not given) ?
yes

Which outcome did this test record for the molecule CC1(C(=O)O)CCC2(C)CCC3(C)C(=CC(=O)C4C5(C)CCC(O)C(C)(C)C5CCC43C)C2C1 (stereo not given) ?
no

Which outcome did this test record for the molecule CCC(C)C(N)C(=O)O (stereo not given) ?
no

Which outcome did this test record for the molecule "CNC1=CN(O)C(c2ccccc2)=c2cc(Cl)ccc2=N1" ?
yes

Which outcome did this test record for the molecule "CO/N=C(/C(=O)N[C@@H]1C(=O)N2C(C(=O)O)=C(CSc3nnnn3C)CS[C@H]12)c1csc(N)n1" ?
no

----------
Biological target: Mitogen-activated protein kinase 10 (Mus musculus) (UniProt Q61831)
Assay: JNK3 AlphaScreen Assay (AID 530);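 note: kinase came from lysate of stimulated human HepG2 cells; signal reports phosphorylation of biotinylated GST-cJun 1-79 at Ser73 with 10 µM ATP; % is set by controls: 0 for no effect and ±100 for the full control effect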
Settings: JNK3 lysate, c-Jun phosphorylation; series mostly up to 57.1 µM
Inconclusive results are not listed. Activity calls are given as the source filed them. Calls come from the whole dose curve; as a rule, active = well fitted curve in either direction with a large enough effect (not every such curve was filed as active); inconclusive = small, poorly fitted or top-dose-only effect, or another doubt; inactive = flat fitted curve, though single readings scatter.
Recorded endpoint: activity change, negative = inhibition

The examples below pair each entry with its known result.
[[record]]
compound = "CC(C)C[C@@H](CC(=O)N[C@@H](CCCN)CC(=O)N[C@@H]1CCCC[C@H]1C(=O)N[C@H](CC(=O)N[C@@H](CCC(=O)O)CC(=O)O)Cc1c[nH]c2ccccc12)NC(=O)[C@@H]1CNCC[C@H]1N"
reported_result = "inactive"

[[record]]
compound = "COC(=O)[C@@]1(Cc2ccccc2)[C@H]2c3cc(C(=O)N4CCCC4)n(Cc4ccsc4Br)c3C[C@H]2CN1C(=O)c1ccccc1"
reported_result = "inactive"

[[record]]
compound = "COc1cc([C@@H]2Oc3cc([C@H]4Oc5cc(O)cc(O)c5C(=O)[C@H]4O)ccc3O[C@H]2CO)ccc1O"
reported_result = "inactive"

[[record]]
compound = "CCCC1(C(=O)OC)C=C2C(=C(C(C)C)C(=O)C2C)CN1 (stereo unspecified)"
reported_result = "inactive"

[[record]]
compound = "COC(=O)c1ccc(C(NC(=O)c2ccco2)[C@]2(C)C[C@H]2C2CCCCC2)cc1 (stereo partly specified)"
reported_result = "inactive"


Switching to the query record.
Reported activity change, negative = inhibition for Mitogen-activated protein kinase 10 (Mus musculus) (UniProt Q61831), given "COC(=O)[C@@H]1C[C@H]1[C@@H](NC(=O)c1ccccc1)c1ccccc1" ?
inactive

----------
Biological target: Vitamin D3 receptor (Homo sapiens) (UniProt P11473)
Sequence (P11473 whole entry, looked up): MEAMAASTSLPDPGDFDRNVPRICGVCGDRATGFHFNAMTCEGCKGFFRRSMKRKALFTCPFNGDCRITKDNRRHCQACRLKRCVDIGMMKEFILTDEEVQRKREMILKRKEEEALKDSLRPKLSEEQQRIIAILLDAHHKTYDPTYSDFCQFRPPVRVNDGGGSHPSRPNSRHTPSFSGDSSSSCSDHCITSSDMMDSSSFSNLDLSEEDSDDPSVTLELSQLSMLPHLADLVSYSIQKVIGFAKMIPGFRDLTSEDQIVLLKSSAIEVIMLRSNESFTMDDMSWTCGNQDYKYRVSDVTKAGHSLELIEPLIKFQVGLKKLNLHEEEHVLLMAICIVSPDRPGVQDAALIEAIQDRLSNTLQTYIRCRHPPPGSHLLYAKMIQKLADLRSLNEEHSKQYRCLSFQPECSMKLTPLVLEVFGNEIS
Assay: qHTS assay for small molecule antagonists of vitamin D receptor signaling (AID 588541)
Conditions: HEK293T VDR-UAS-bla, beta-lactamase ratio, antagonist mode; series mostly up to 76.7 µM
Source text: NIH Chemical Genomics Center [NCGC] U.S. Environmental Protection Agency [EPA] National Institutes of Environmental Health Sciences [NIEHS] National Toxicology Program [NTP] The Vitamin D receptor (VDR) is a member of nuclear hormone receptor superfamily and it plays a critical role in calcium homeostasis and bone metabolism. It plays a role in inducing cell differentiation, inhibiting cell growth and in thrombogenicity. […] 9. Detection; Fluorescence; Envision plate reader
Records with an inconclusive call do not appear. Active and inactive are the calls of the source. Calls come from the whole dose curve.
One label from this list, please: 1.0 = active, 0.0 = inactive

Which outcome did this test record for the molecule CCC(C)Nc1ccc(NC(C)CC)cc1 (stereo not given) ?
1.0

Which outcome did this test record for the molecule "O=C1OC2(c3cc(Br)c(O)c(Br)c3Oc3c2cc(Br)c(O)c3Br)c2c(Cl)c(Cl)c(Cl)c(Cl)c21" ?
0.0

Which outcome did this test record for the molecule "Cc1cccc(O)c1C" ?
0.0

Which outcome did this test record for the molecule "O=C=Nc1ccc(Cc2ccc(N=C=O)cc2)cc1" ?
0.0

----------
Biological target: ATP-dependent 6-phosphofructokinase (Trypanosoma brucei brucei) (UniProt O15648)
Sequence (O15648 whole entry, looked up): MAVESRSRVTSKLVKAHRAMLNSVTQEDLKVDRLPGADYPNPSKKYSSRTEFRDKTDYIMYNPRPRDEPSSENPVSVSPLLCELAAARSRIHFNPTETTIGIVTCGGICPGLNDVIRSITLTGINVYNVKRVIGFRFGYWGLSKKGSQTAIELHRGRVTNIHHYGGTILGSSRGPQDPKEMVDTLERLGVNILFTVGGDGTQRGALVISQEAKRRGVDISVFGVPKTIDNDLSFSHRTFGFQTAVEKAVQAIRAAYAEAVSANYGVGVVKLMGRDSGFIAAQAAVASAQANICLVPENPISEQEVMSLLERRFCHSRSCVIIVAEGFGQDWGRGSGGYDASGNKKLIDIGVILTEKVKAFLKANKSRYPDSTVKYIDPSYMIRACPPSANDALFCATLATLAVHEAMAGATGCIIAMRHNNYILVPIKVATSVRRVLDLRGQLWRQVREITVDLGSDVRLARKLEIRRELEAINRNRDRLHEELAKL
Assay: qHTS Assay to Find Inhibitors of T. brucei phosphofructokinase: hit validation (AID 492961);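 note: luminescence reports ADP formed as PFK phosphorylates fructose-6-phosphate with ATP; % is set by controls: 0 for no effect and ±100 for the full control effect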
Details: T. brucei PFK, ADP-Glo luminescence; series mostly up to 51.4 µM
Inconclusive results are not listed. Activity calls are given as the source filed them. The call rests on the fitted dose curve; in most records, active means well fitted inhibition curve with a large enough effect; inconclusive means small, poorly fitted or top-dose-only effect, or effect the other way; inactive means flat fitted curve, though single readings scatter.
Recorded endpoint: outcome

The examples below pair each entry with its known result.
[[record]]
compound = "COc1ccc(CC(C)NCC(O)c2ccc(O)c(NC=O)c2)cc1 (centres undefined)"
reported_result = "inactive"

[[record]]
compound = "OC[C@@H](O)C(O[C@@H]1O[C@@H](CO)[C@H](O)[C@H](O)[C@H]1O)[C@H](O)[C@@H](O)CO (some centres undefined)"
reported_result = "inactive"

[[record]]
compound = "CC[C@@]1(O)C[C@H](O[C@H]2C[C@@H](N(C)C)[C@@H](O[C@H]3C[C@@H](O)[C@@H](O[C@H]4CCC(=O)[C@@H](C)O4)[C@@H](C)O3)[C@@H](C)O2)c2c(cc3c(c2O)C(=O)c2c(O)cccc2C3=O)[C@H]1C(=O)OC"
reported_result = "inactive"

[[record]]
compound = "NC(=O)NC(CCC(=O)O)C(=O)O (centres undefined)"
reported_result = "inactive"

[[record]]
compound = "CC[C@@]1(O)CC2CN(CCc3c([nH]c4ccccc34)[C@](C(=O)OC)(c3cc4c(cc3OC)N(C)C3[C@@](O)(C(=O)OC)C(OC(C)=O)[C@]5(CC)C=CCN6CC[C@@]43C65)C2)C1 (some centres undefined)"
reported_result = "inactive"


Please report the recorded outcome for "Nc1nc(F)nc2c1ncn2[C@@H]1O[C@H](CO)[C@@H](O)[C@H]1O" .
inactive

Please report the recorded outcome for CCOC(=O)C(CCc1ccccc1)NC(C)C(=O)N1Cc2cc(OC)c(OC)cc2CC1C(=O)O (centres undefined) .
inactive

Please report the recorded outcome for C=CCn1c(=O)n(C2OC(CO)C(O)C2O)c2nc(N)[nH]c(=O)c21 (centres undefined) .
inactive

Please report the recorded outcome for OCCN1CC(O)C(O)C(O)C1CO (centres undefined) .
inactive
